Consider the following molecules; for each one, report its IC50.
Sequence of the target: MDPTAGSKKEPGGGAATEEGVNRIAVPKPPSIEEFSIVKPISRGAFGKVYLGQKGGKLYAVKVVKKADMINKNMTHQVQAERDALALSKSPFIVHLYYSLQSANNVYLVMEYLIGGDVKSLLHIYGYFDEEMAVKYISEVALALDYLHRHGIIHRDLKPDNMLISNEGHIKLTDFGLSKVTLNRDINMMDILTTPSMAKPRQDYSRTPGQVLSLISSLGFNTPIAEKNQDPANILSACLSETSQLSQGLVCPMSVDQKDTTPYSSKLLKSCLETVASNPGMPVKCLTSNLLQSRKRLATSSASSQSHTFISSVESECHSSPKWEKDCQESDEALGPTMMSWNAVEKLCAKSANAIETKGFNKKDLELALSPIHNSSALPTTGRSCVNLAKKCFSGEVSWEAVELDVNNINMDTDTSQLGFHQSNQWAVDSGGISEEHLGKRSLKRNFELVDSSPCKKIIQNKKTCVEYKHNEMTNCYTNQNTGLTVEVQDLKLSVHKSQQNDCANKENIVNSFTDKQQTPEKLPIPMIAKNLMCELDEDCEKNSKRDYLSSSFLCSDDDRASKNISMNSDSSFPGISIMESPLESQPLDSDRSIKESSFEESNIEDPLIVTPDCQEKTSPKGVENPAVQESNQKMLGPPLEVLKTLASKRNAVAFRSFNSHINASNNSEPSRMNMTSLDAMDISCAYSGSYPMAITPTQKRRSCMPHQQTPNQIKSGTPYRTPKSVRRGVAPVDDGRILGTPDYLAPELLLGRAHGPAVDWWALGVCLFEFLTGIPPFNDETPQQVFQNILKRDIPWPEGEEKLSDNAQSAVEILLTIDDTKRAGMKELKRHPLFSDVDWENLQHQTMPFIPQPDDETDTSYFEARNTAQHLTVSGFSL
Use µM as the unit, but write only the number.

Input line: Look at this molecule and give its reported IC50. Clc1ccc(Nc2cccc(-c3cn[nH]c3)c2)cc1 [GKI-1, reference compound]
Output line: 12

Input line: Fill in: IC50 of `O=C(Nc1nc2ccccc2[nH]1)c1cccc(-n2cccc2)c1` is ___
Output line: 11.6
